Tested on: Falciformispora senegalensis CBS197.79
Assay: growth relative to untreated control; higher = less inhibition, active = 20 or less
Details: 25 µM
Assign satisfied whenever growth does not fall below 80%; assign not satisfied whenever it does.

1. CN1COCN(Cc2cnc(Cl)s2)/C1=N/[N+](=O)[O-] :: satisfied
2. O=[N+]([O-])/N=C1\NCCN1Cc1ccc(Cl)nc1 :: satisfied
3. Clc1cc(Cl)cc(Nc2nc3cnc(NC4CCCC4)cc3n2C2CCNC2)c1 (stereo not given) :: not satisfied

API: the following record is the query input.
query: Has CC(C)Nc1cc2c(cn1)nc(Nc1cc(Cl)cc(C(F)(F)F)c1)n2C1CCNC1 (stereo not given) a recorded growth greater than or equal to 80%?
result: not satisfied

====

System: Falciformispora senegalensis CBS197.79
Test: growth relative to untreated control; higher = less inhibition, active = 20 or less
Details: 100 µM
Reported growth values are given for each entry in this list.
Supply the numeric figure in %, leaving out any unit text.

See these solved cases before continuing.
1. CC(C)=CC1C(C(=O)OC(C#N)c2cccc(Oc3ccccc3)c2)C1(C)C (centres undefined) :: 101
2. O=[N+]([O-])/C=C1\NCCCS1 :: 93.8
3. Cc1sc2c(c1C)C(c1ccc(Cl)cc1)=N[C@@H](CC(=O)OC(C)(C)C)c1nnc(C)n1-2 :: 97.4
4. C/C=C(\C)C(=O)O[C@H]1C[C@@H](OC(C)=O)[C@@]2(C(=O)OC)CO[C@H]3[C@@H](O)[C@@](C)([C@]45O[C@@]4(C)[C@H]4C[C@@H]5O[C@@H]5OC=C[C@@]54O)[C@H]4[C@]1(CO[C@]4(O)C(=O)OC)[C@@H]32 :: 96.1
5. CNC(=O)Oc1cccc2c1OC(C)(C)O2 :: 96

query: Entry CCOCn1c(-c2ccc(Cl)cc2)c(C#N)c(Br)c1C(F)(F)F : reported growth = ?
result: 76.5

query: Follow-up item: CNC(=O)Oc1ccccc1OC(C)C
result: 97.7

query: Follow-up item: Clc1ccc(C(OCCN2CCCCC2)c2ccccc2)cc1 (centres undefined)
result: 13.2

query: Follow-up item: CC1(C)CNC(=NN=C(C=Cc2ccc(C(F)(F)F)cc2)C=Cc2ccc(C(F)(F)F)cc2)NC1
result: 107

query: Follow-up item: C=C(C)[C@H]1Cc2c(ccc3c2O[C@@H]2COc4cc(OC)c(OC)cc4[C@@H]2C3=O)O1
result: 102

query: Follow-up item: CCN(Cc1ccc(Cl)nc1)/C(=C/[N+](=O)[O-])NC
result: 89.6

query: Follow-up item: CCN(CC)c1nc(C)cc(OP(=S)(OC)OC)n1
result: 95.6

query: Follow-up item: CC[C@H]1CN2CCc3cc(OC)c(OC)cc3[C@@H]2C[C@@H]1C[C@H]1NCCc2cc(OC)c(OC)cc21
result: 18.3

query: Follow-up item: ClC1=C(Cl)[C@@]2(Cl)[C@H]3C[C@@H](Cl)[C@H](Cl)[C@H]3[C@@]1(Cl)C2(Cl)Cl
result: 78.3

query: Follow-up item: CNC(=O)c1cc(Cl)cc(C)c1NC(=O)c1cc(Br)nn1-c1ncccc1Cl
result: 94.4

query: Follow-up item: COC(=O)N(C(=O)N1CO[C@@]2(C(=O)OC)Cc3cc(Cl)ccc3C2=N1)c1ccc(OC(F)(F)F)cc1
result: 96.3
